The reported measurements were obtained from the supplement of paper PMC7411640.

# System: MDA-MB-468
# Procedure text: phospho-S6 immunofluorescence (DAPI-normalised), per-plate z-score; higher = higher phospho-S6 signal (less pathway suppression)
# Condition description: co-treatment: lapatinib 1 uM; 24 h
Where a name gives a salt, the structure may show the parent alone.
This section presents molecules with their documented phospho-S6 immunofluorescence (z-score) values.
Form: value (number only, do not type unit).

Below: 5 molecules and their reported phospho-S6 immunofluorescence (z-score).
### Prompt Tell me reported phospho-S6 immunofluorescence (z-score) for CC(C)=CCC/C(C)=C/CC/C(C)=C/CSc1ccccc1C(=O)O [Salirasib] (compound 10 µM) , tested with MDA-MB-468.
### Response 0.86

### Prompt API: value(readout= phospho-S6 immunofluorescence (z-score), system= MDA-MB-468, query= OCC1OC(n2cnc3c(NCCc4ccccc4)ncnc32)C(O)C1O (centres undefined) [N6-(2-Phenylethyl)adenosine] (compound 10 µM) )
### Response 1.11

### Prompt Can you look up phospho-S6 immunofluorescence (z-score) on MDA-MB-468 for CCCCN1CCC(CNC(=O)c2c3n(c4ccccc24)CCCO3)CC1 [Piboserod] (compound 10 µM) ?
### Response -0.44

### Prompt Any idea what phospho-S6 immunofluorescence (z-score) came out for CN(C)N(C)C(=O)[C@@]1(Cc2ccccc2)CCCN(C(=O)[C@@H](Cc2c[nH]c3ccccc23)NC(=O)C(C)(C)N)C1 [Anamorelin (hydrochloride)] (compound 10 µM) on MDA-MB-468?
### Response -0.96

### Prompt API: value(readout=phospho-S6 immunofluorescence (z-score), system=MDA-MB-468) for record OCc1ccc(-c2nn(Cc3ccccc3)c3ccccc23)o1 [Lificiguat] (compound 10 µM)
### Response 2.82

---
### Prompt What phospho-S6 immunofluorescence (z-score) appears in the records for this molecule with MDA-MB-468? CCc1c(C(=O)NCCc2ccc(N3CCCCC3)cc2)[nH]c2ccc(Cl)cc12 (compound 10 µM)
### Response -0.3

### Prompt Record lookup: for MDA-MB-468, what phospho-S6 immunofluorescence (z-score) belongs to CN(C)CCN1C(=O)c2cccc3cc(NC(N)=O)cc(c23)C1=O (compound 10 µM) ?
### Response 7.09

### Prompt Form entry - test system: MDA-MB-468; read-out: phospho-S6 immunofluorescence (z-score); molecule: O=C1NCCN1CCN1CCC(c2cn(-c3ccc(F)cc3)c3ccc(Cl)cc23)CC1 [Sertindole] (compound 10 µM)
### Response -6.25

### Prompt Hello, I am looking for reported phospho-S6 immunofluorescence (z-score) with MDA-MB-468 for Cc1nc(C#Cc2cccnc2)cs1 [MTEP (hydrochloride)] (compound 10 µM) . Could you help?
### Response -0.65

### Prompt Under MDA-MB-468: phospho-S6 immunofluorescence (z-score) value of CCN(CC)CCOC(=O)[C@@H](Cc1cccc2ccccc12)C[C@@H]1CCCO1 [Naftidrofuryl (oxalate)] (compound 10 µM) ?
### Response -0.87

### Prompt What value of phospho-S6 immunofluorescence (z-score) on MDA-MB-468 does COc1ccccc1N1CCN(CCN(C(=O)C2CCCCC2)c2ccccn2)CC1 (compound 10 µM) have?
### Response 0.26

### Prompt Kindly state the measured phospho-S6 immunofluorescence (z-score) obtained for CC[C@H](C)[C@@H]1NC(=O)[C@H](Cc2ccc(OC)cc2)NC(=O)CCCSC[C@@H](C(=O)N2CCC[C@H]2C(=O)N[C@@H](CC(C)C)C(=O)NCC(N)=O)NC(=O)[C@H](CC(N)=O)NC(=O)[C@H](CCC(N)=O)NC1=O [Carbetocin] (compound 10 µM) with MDA-MB-468.
### Response -0.07

### Prompt Notebook entry, MDA-MB-468 assay: phospho-S6 immunofluorescence (z-score) of Cc1sc(C)c(C(=O)NC2(c3ccc(C(=O)O)cc3)CC2)c1Cc1ccc(C(F)(F)F)cc1 (compound 10 µM) = ?
### Response -0.58

### Prompt Identify the measured phospho-S6 immunofluorescence (z-score) of COc1ccccc1Oc1c(NS(=O)(=O)c2ccc(C(C)(C)C)cc2)nc(-c2ncccn2)nc1OCCO [Bosentan] (compound 10 µM) for MDA-MB-468.
### Response 0.78
